Experimental system: GRASP, Q7Z6J2
Sequence (Q7Z6J2 96-193): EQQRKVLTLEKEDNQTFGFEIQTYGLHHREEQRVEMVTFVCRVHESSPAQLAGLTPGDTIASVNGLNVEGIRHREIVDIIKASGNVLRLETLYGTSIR
Assay remarks: holdup assay
Set-up: key: below the threshold = too weak to quantify, mostly under pKd 3.1 to 4
Condition context: plain residues with an end cap or a label only (N-terminal biotin on a linker: ahx)
Recorded metric: pKd

INSERT INTO results (binder, value) VALUES
  ('APSRKLNTEI [TIAM1, Q13009]', 'below the threshold'),
  ('TEAKLTETNA [MYO18A, Q92614]', 'below the threshold'),
  ('EKQAKGDTEF [CACYBP, Q9HB71]', 'below the threshold');
